# TGI values compiled below
# System: SR
# protocolNotes: Growth inhibition of human SR cells by sulforhodamine B assay
# Format: functional
# measurementConditions: read-out: TGI
propertyLabel: TGI (µM)

>>> df
                             chemicalstring  signqualifier  datavalue
0  C/C=C(/C)C(=O)O[C@@H]1CC(C)(C)C[C@H]2C3=CC[C@@H]4[C@@]5(C)CC[C@H](O)C(C)(C)[C@@H]5CC[C@@]4(C)[C@]3(C)CC[C@@]12C(=O)O              =       5.63
1  C/C=C(/C)C(=O)O[C@@H]1CC(C)(C)C[C@H]2C3=CC[C@@H]4[C@@]5(C)CCC(=O)C(C)(C)[C@@H]5CC[C@@]4(C)[C@]3(C)CC[C@@]12C(=O)O              >        100
2  CC1(C)C[C@@H](O)[C@]2(C(=O)O)CC[C@]3(C)C(=CC[C@@H]4[C@@]5(C)C/C(=C\C=C\c6ccccc6)C(=O)C(C)(C)[C@@H]5CC[C@]43C)[C@@H]2C1              =       6.91
3  CC(C)=CC(=O)O[C@@H]1CC(C)(C)C[C@H]2C3=CC[C@@H]4[C@@]5(C)CC[C@H](O)C(C)(C)[C@@H]5CC[C@@]4(C)[C@]3(C)CC[C@@]12C(=O)O              =       35.4
4  CC(C)=CC(=O)O[C@@H]1CC(C)(C)C[C@H]2C3=CC[C@@H]4[C@@]5(C)CCC(=O)C(C)(C)[C@@H]5CC[C@@]4(C)[C@]3(C)CC[C@@]12C(=O)O              =       33.8

----------
# Test system: ACHN
# protocolNotes: Growth inhibition of human ACHN cells assessed as cell growth at 10^-4 M by sulforhodamine B assay
# Assay type: functional
# measurementConditions: read-out: Activity
Consider the cut-off -70%. If the recorded growth at 100 µM is strictly smaller, the label is class 1; if not, the label is class 0.

>>> df
                             chemicalstring  qualitativelabel
0  C/C=C(/C)C(=O)O[C@@H]1CC(C)(C)C[C@H]2C3=CC[C@@H]4[C@@]5(C)CCC(=O)C(C)(C)[C@@H]5CC[C@@]4(C)[C@]3(C)CC[C@@]12C(=O)O           class 0
1  CC(C)=CC(=O)O[C@@H]1CC(C)(C)C[C@H]2C3=CC[C@@H]4[C@@]5(C)CCC(=O)C(C)(C)[C@@H]5CC[C@@]4(C)[C@]3(C)CC[C@@]12C(=O)O           class 0
2  CC(C)=CC(=O)O[C@@H]1CC(C)(C)C[C@H]2C3=CC[C@@H]4[C@@]5(C)CC[C@H](O)C(C)(C)[C@@H]5CC[C@@]4(C)[C@]3(C)CC[C@@]12C(=O)O           class 1
3  CC1(C)C[C@@H](O)[C@]2(C(=O)O)CC[C@]3(C)C(=CC[C@@H]4[C@@]5(C)C/C(=C\C=C\c6ccccc6)C(=O)C(C)(C)[C@@H]5CC[C@]43C)[C@@H]2C1           class 1

----------
Recorded measurements of TGI, one per entry
# System: RXF 393
# protocolNotes: Growth inhibition of human RXF393 cells by sulforhodamine B assay
# Assay type: functional
# measurementConditions: read-out: TGI
propertyLabel: TGI (µM)

In [3]: df
Out[3]:
                             chemicalstring  propertylabel  unittag  datavalue
0  C/C=C(/C)C(=O)O[C@@H]1CC(C)(C)C[C@H]2C3=CC[C@@H]4[C@@]5(C)CC[C@H](O)C(C)(C)[C@@H]5CC[C@@]4(C)[C@]3(C)CC[C@@]12C(=O)O            TGI       µM       3.83
1  C/C=C(/C)C(=O)O[C@@H]1CC(C)(C)C[C@H]2C3=CC[C@@H]4[C@@]5(C)CCC(=O)C(C)(C)[C@@H]5CC[C@@]4(C)[C@]3(C)CC[C@@]12C(=O)O            TGI       µM       9.93
2  CC1(C)C[C@@H](O)[C@]2(C(=O)O)CC[C@]3(C)C(=CC[C@@H]4[C@@]5(C)C/C(=C\C=C\c6ccccc6)C(=O)C(C)(C)[C@@H]5CC[C@]43C)[C@@H]2C1            TGI       µM       7.65
3  CC(C)=CC(=O)O[C@@H]1CC(C)(C)C[C@H]2C3=CC[C@@H]4[C@@]5(C)CCC(=O)C(C)(C)[C@@H]5CC[C@@]4(C)[C@]3(C)CC[C@@]12C(=O)O            TGI       µM       16.3
4  CC(C)=CC(=O)O[C@@H]1CC(C)(C)C[C@H]2C3=CC[C@@H]4[C@@]5(C)CC[C@H](O)C(C)(C)[C@@H]5CC[C@@]4(C)[C@]3(C)CC[C@@]12C(=O)O            TGI       µM       7.69

----------
# Test system: NCI-H522
# protocolNotes: Growth inhibition of human NCI-H522 cells by sulforhodamine B assay
# Format: functional
# measurementConditions: read-out: pLC50 (the source's name) (converted)

compound	signQualifier	CC50 (µM)
C/C=C(/C)C(=O)O[C@@H]1CC(C)(C)C[C@H]2C3=CC[C@@H]4[C@@]5(C)CC[C@H](O)C(C)(C)[C@@H]5CC[C@@]4(C)[C@]3(C)CC[C@@]12C(=O)O [Reduced Lantadene A]	=	32.4
CC(C)=CC(=O)O[C@@H]1CC(C)(C)C[C@H]2C3=CC[C@@H]4[C@@]5(C)CC[C@H](O)C(C)(C)[C@@H]5CC[C@@]4(C)[C@]3(C)CC[C@@]12C(=O)O [Reduced Lantadene B]	=	70.8
CC1(C)C[C@@H](O)[C@]2(C(=O)O)CC[C@]3(C)C(=CC[C@@H]4[C@@]5(C)C/C(=C\C=C\c6ccccc6)C(=O)C(C)(C)[C@@H]5CC[C@]43C)[C@@H]2C1	=	29.5
C/C=C(/C)C(=O)O[C@@H]1CC(C)(C)C[C@H]2C3=CC[C@@H]4[C@@]5(C)CCC(=O)C(C)(C)[C@@H]5CC[C@@]4(C)[C@]3(C)CC[C@@]12C(=O)O [LANTADENE A]	>	100
CC(C)=CC(=O)O[C@@H]1CC(C)(C)C[C@H]2C3=CC[C@@H]4[C@@]5(C)CCC(=O)C(C)(C)[C@@H]5CC[C@@]4(C)[C@]3(C)CC[C@@]12C(=O)O	>	100

----------
# Test system: U-251
# protocolNotes: Growth inhibition of human U251 cells assessed as growth inhibition at 10 uM by sulforhodamine B assay
# Assay type: functional
# measurementConditions: read-out: GI
The following compounds are shown together with reported inhibition of growth at 10 µM values.
propertyLabel: inhibition of growth at 10 µM (%)

>>> print(df.to_string())
                             chemicalstring                  propertylabel  signqualifier  datavalue
0  CC(C)=CC(=O)O[C@@H]1CC(C)(C)C[C@H]2C3=CC[C@@H]4[C@@]5(C)CCC(=O)C(C)(C)[C@@H]5CC[C@@]4(C)[C@]3(C)CC[C@@]12C(=O)O  inhibition of growth at 10 µM              =       61.8
1  CC(C)=CC(=O)O[C@@H]1CC(C)(C)C[C@H]2C3=CC[C@@H]4[C@@]5(C)CC[C@H](O)C(C)(C)[C@@H]5CC[C@@]4(C)[C@]3(C)CC[C@@]12C(=O)O  inhibition of growth at 10 µM              =       60.8
2  CC1(C)C[C@@H](O)[C@]2(C(=O)O)CC[C@]3(C)C(=CC[C@@H]4[C@@]5(C)C/C(=C\C=C\c6ccccc6)C(=O)C(C)(C)[C@@H]5CC[C@]43C)[C@@H]2C1  inhibition of growth at 10 µM              =       66.4
3  C/C=C(/C)C(=O)O[C@@H]1CC(C)(C)C[C@H]2C3=CC[C@@H]4[C@@]5(C)CC[C@H](O)C(C)(C)[C@@H]5CC[C@@]4(C)[C@]3(C)CC[C@@]12C(=O)O  inhibition of growth at 10 µM              =       61.8
4  CC1(C)C[C@@H](O)[C@]2(C(=O)O)CC[C@]3(C)C(=CC[C@@H]4[C@@]5(C)CC[C@H](O)C(C)(C)[C@@H]5CC[C@]43C)[C@@H]2C1  inhibition of growth at 10 µM              <         10
5  COc1cc(/C=C2\C[C@]3(C)[C@H]4CC=C5[C@@H]6CC(C)(C)C[C@@H](O)[C@]6(C(=O)O)CC[C@@]5(C)[C@]4(C)CC[C@H]3C(C)(C)C2=O)ccc1O  inhibition of growth at 10 µM              =       15.3
6  CC1(C)C[C@@H](O)[C@]2(C(=O)O)CC[C@]3(C)C(=CC[C@@H]4[C@@]5(C)CCC(=O)C(C)(C)[C@@H]5CC[C@]43C)[C@@H]2C1  inhibition of growth at 10 µM              =       10.8
7  C/C=C(/C)C(=O)O[C@@H]1CC(C)(C)C[C@H]2C3=CC[C@@H]4[C@@]5(C)CCC(=O)C(C)(C)[C@@H]5CC[C@@]4(C)[C@]3(C)CC[C@@]12C(=O)O  inhibition of growth at 10 µM              =       39.9
